- Assayed target: SphK1 (Homo sapiens, UniProt Q9NYA1)
- Sequence (Q9NYA1 whole entry, species assumed): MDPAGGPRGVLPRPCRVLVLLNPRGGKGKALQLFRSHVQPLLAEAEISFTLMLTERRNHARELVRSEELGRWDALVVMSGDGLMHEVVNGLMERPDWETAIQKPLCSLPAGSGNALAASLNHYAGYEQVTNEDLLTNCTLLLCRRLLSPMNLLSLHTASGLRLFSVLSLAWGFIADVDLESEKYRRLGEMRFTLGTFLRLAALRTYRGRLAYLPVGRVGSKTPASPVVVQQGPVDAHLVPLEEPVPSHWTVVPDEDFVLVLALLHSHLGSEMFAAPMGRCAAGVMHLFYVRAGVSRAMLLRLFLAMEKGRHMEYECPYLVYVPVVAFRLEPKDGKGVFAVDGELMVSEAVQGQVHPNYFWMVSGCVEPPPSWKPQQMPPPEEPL
- Protocol details: dissociation of acetyl-CoA from the acetyl-CoA:SphK1 complex, equilibrium dialysis
Measured quantity: pKd
Numbers only, as −log10 of the molar value.

Which pKd value is on record for `CC(=O)SCCNC(=O)CCNC(=O)[C@H](O)C(C)(C)COP(=O)(O)OP(=O)(O)OC[C@H]1O[C@@H](n2cnc3c(N)ncnc32)[C@H](O)[C@@H]1OP(=O)(O)O` ?
5.17

Data provenance is patent US11899025B2.
